# assay method text: Metabolic stability in human liver microsomes assessed as intrinsic clearance at 0.5 uM incubated for 40 mins in presence of NADPH
# Assay type: ADME, Microsome
# assay conditions: read-out: CLH
measured parameter: log10 of microsomal CLint at 0.5 µM (log10 of the value in µL/min/mg)
The figures below represent log10 of microsomal CLint at 0.5 µM, where microsomal CLint at 0.5 µM is stated in µL/min/mg.

Check out these entries, answers already filled in.
Cc1cc2cc(C(=O)N(Cc3ccc(C(F)(F)F)cn3)CC(C)C)ccc2nc1N | 1.51
Nc1nc2cnc(C(=O)N3CCCC[C@@H]3c3ccc(C(F)(F)F)cc3)cc2c2c1COC2 | 1.87
C[C@@H]1COC[C@H](c2ccc(C(F)(F)F)cc2)N1C(=O)c1cc2c3c(c(N)nc2cn1)COC3 | 1.63
C[C@H]1OCc2c1c(N)nc1cnc(C(=O)N3CCOC[C@@H]3c3ccc(C(F)(F)F)cc3)cc21 | 1.41
C[C@H](c1ncccn1)N(Cc1ccc(C(F)(F)F)cn1)C(=O)c1ccc2nc(N)c3c(c2c1)CCC3 | 2.44

Next:
Quick one: log10 of microsomal CLint at 0.5 µM for `Nc1nc2cnc(C(=O)N3CCC(F)(F)C[C@@H]3c3ccc(C(F)(F)F)cc3)cc2c2c1COC2` ?
1.70
